Source: ChEMBL document CHEMBL1157358

Assay: Drug level at steady state in human serum at 600 mg administered every 12 hrs
Format: ADME, cell-free
Settings: read-out: Drug uptake
quantity.kind: concentration at 12 h (ng/mL)
Please give a number only; it is taken to be in ng/mL.

Ask | Look up concentration at 12 h for this compound: CC(=O)NC[C@H]1CN(c2ccc(N3CCOCC3)c(F)c2)C(=O)O1 [LINEZOLID]
Reply | 6000
